# EXPERIMENTAL_SYSTEM: BACE2 (Homo sapiens, UniProt Q9Y5Z0)
# Construct: recombinant BACE2 protein in a final concentration of 0.4 μg/ml
# Sequence (Q9Y5Z0 63-518): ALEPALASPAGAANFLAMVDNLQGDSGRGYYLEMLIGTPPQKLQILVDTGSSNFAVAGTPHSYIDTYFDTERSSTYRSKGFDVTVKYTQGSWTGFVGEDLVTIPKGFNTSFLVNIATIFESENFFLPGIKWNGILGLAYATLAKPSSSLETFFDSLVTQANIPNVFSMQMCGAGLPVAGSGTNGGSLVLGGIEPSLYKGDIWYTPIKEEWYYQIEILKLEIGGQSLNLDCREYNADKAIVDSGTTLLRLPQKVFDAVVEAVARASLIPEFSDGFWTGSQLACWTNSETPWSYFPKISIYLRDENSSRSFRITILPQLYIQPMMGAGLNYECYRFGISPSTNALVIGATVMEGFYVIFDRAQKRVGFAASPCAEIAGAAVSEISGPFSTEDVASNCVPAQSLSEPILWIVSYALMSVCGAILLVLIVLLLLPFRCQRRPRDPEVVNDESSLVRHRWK
# EXPERIMENT_SUMMARY: BACE2 biochemical FRET based assay
# CONDITION_SUMMARY: recombinant BACE2, 450 minutes at room temperature, pH 5.0
MEASURED_ENDPOINT: Biochemical FRET based assay pIC50
No unit in the answer, only the number.

INSERT INTO results (compound, measured_endpoint, experimental_result) VALUES
  ('C[C@@]1(C#N)C[C@@H]2[C@@H](C(F)(F)F)OC[C@]2(c2cc(NC(=O)c3ccc(C#N)cn3)ccc2F)N=C1N [3c]', 'Biochemical FRET based assay pIC50', 7.97),
  ('C[C@@H]1OC[C@@]2(c3cc(NC(=O)c4ccc(C#N)cn4)ccc3F)N=C(N)[C@@](C)(C#N)C[C@@H]12 [4c]', 'Biochemical FRET based assay pIC50', 5.27),
  ('COc1cnc(C(=O)Nc2ccc(F)c([C@]34CO[C@H](C)[C@H]3C[C@@](C)(C#N)C(N)=N4)c2)cn1 [1b]', 'Biochemical FRET based assay pIC50', 7.21),
  ('COc1cnc(C(=O)Nc2ccc(F)c([C@]34CO[C@H](C)[C@H]3C[C@@](C)(S(C)(=O)=O)C(N)=N4)c2)cn1 (single isomer, unassigned) [13a]', 'Biochemical FRET based assay pIC50', 5.9);

-- ask I'd like to know its Biochemical FRET based assay pIC50. The compound in question is C[C@@]1(C#N)C[C@@H]2[C@@H](C(F)(F)F)OC[C@]2(c2cc(NC(=O)c3cnc(OCF)cn3)ccc2F)N=C1N [7d]
-- reply 7.25

-- ask I'd like to know its Biochemical FRET based assay pIC50. The compound in question is Cl.NC1=N[C@@]2(c3cc(NC(=O)c4ccc(F)cn4)ccc3F)CO[C@H](C(F)(F)F)[C@H]2CC1 [12c]
-- reply 7.26

-- ask I'd like to know its Biochemical FRET based assay pIC50. The compound in question is C[C@H]1OC[C@]2(c3cc(NC(=O)c4ccc(C#N)cn4)ccc3F)N=C(N)[C@@](C)(C#N)C[C@H]12 [6b]
-- reply 6.68

-- ask I'd like to know its Biochemical FRET based assay pIC50. The compound in question is COc1cnc(C(=O)Nc2ccc(F)c([C@@]34CO[C@@H](C)[C@@H]3C[C@](C)(S(C)(=O)=O)C(N)=N4)c2)cn1 (single isomer, unassigned) [13c]
-- reply 5.41

----------
# EXPERIMENTAL_SYSTEM: BACE1 (Homo sapiens)
# Construct: recombinant BACE1 protein in a final concentration of 1 μg/ml
# EXPERIMENT_SUMMARY: BACE1 biochemical FRET based assay
# CONDITION_SUMMARY: Method 1: recombinant BACE1 1 μg/ml, 120 min at room temperature, pH 5.0
Biochemical FRET based assay pIC50 reference
No unit in the answer, only the number.

Recorded Biochemical FRET based assay pIC50, per entry:
INSERT INTO measurements (molecule, experimental_result) VALUES
  ('Cl.NC1=N[C@@]2(c3cc(NC(=O)c4ccc(F)cn4)ccc3F)CO[C@H](C(F)(F)F)[C@H]2CC1 [12c]', 7.95),
  ('COc1cnc(C(=O)Nc2ccc(F)c([C@]34CO[C@H](C)[C@H]3C[C@@](C)(C#N)C(N)=N4)c2)cn1', 7.89),
  ('C[C@@]1(C#N)C[C@H]2[C@H](C(F)(F)F)OC[C@@]2(c2cc(NC(=O)c3cnc(OCF)cn3)ccc2F)N=C1N', 5.74);

-- ask I'd like to know its Biochemical FRET based assay pIC50. The molecule in question is C[C@]1(C#N)C[C@@H]2[C@@H](C(F)(F)F)OC[C@]2(c2cc(NC(=O)c3ccc(C#N)cn3)ccc2F)N=C1N
-- reply 8.33

----------
# EXPERIMENTAL_SYSTEM: BACE1 (Homo sapiens)
# Construct: recombinant BACE1 protein in a final concentration of 1 μg/ml
# EXPERIMENT_SUMMARY: BACE1 biochemical FRET based assay
# CONDITION_SUMMARY: Method 1: recombinant BACE1 1 μg/ml, 120 min at room temperature, pH 5.0
# Source text: BACE1 Biochemical Fret Based Assay This assay is a Fluorescence Resonance Energy Transfer Assay (FRET) based assay. […] Upon cleavage by BACE1, the fluorophore Mca is separated from the quenching group Dnp, restoring the full fluorescence yield of the donor. The increase in fluorescence is linearly related to the rate of proteolysis. […]
Biochemical FRET based assay pIC50 reference
No unit in the answer, only the number.

Recorded Biochemical FRET based assay pIC50, per entry:
INSERT INTO results (molecule, experimental_result) VALUES
  ('C[C@@H]1OC[C@@]2(c3cc(NC(=O)c4ccc(F)cn4)ccc3F)N=C(N)[C@@](C)(C#N)C[C@@H]12 (single isomer, unassigned) [10c]', 5.01),
  ('C[C@@]1(C#N)C[C@@H]2[C@@H](C(F)(F)F)OC[C@]2(c2cc(NC(=O)c3cnc(OCF)cn3)ccc2F)N=C1N [7d]', 8.79);

-- ask I'd like to know its Biochemical FRET based assay pIC50. The molecule in question is C[C@@]1(C#N)C[C@@H]2[C@@H](C(F)(F)F)OC[C@]2(c2cc(NC(=O)c3ncc(Cl)cn3)ccc2F)N=C1N [8c]
-- reply 8.75

----------
IC50 reference
# EXPERIMENTAL_SYSTEM: BACE1 (Homo sapiens, UniProt P56817)
# Construct: recombinant BACE1 protein in a final concentration of 1 μg/ml
# Sequence (P56817 46-501): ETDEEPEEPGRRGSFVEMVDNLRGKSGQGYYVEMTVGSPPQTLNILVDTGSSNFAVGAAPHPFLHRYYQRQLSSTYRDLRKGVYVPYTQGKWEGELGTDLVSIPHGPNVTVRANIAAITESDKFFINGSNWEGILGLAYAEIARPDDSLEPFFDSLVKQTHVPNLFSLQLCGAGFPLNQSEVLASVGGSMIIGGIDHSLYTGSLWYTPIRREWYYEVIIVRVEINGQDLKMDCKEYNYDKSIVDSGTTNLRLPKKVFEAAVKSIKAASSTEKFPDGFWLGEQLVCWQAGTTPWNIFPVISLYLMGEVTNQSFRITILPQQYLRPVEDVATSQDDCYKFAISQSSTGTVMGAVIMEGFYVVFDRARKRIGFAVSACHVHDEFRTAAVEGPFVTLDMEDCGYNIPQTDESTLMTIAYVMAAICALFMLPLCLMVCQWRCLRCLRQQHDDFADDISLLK
# EXPERIMENT_SUMMARY: BACE1 biochemical FRET based assay
# CONDITION_SUMMARY: Method 1: recombinant BACE1 1 μg/ml, 120 min at room temperature, pH 5.0; read-out: Biochemical FRET based assay pIC50 (converted)
Express it in nM; write the number only.

Recorded IC50, per entry:
INSERT INTO assay_data (molecule, experimental_result) VALUES
  ('CC1(C#N)CC2C(C(F)F)OCC2(c2cc(NC(=O)c3cnc(OCF)cn3)ccc2F)N=C1N (single isomer, unassigned) [25a]', 8.91),
  ('C[C@]1(C#N)C[C@@H]2[C@@H](CF)OC[C@]2(c2cc(NC(=O)c3ccc(C#N)cn3)ccc2F)N=C1N [24b]', 14.5),
  ('CC1OCC2(c3cc(NC(=O)c4cnc(-n5cncn5)cn4)ccc3F)N=C(N)C(C)(C#N)CC12 (single isomer, unassigned) [15a]', 7.41),
  ('CC1OCC2(c3cc(NC(=O)c4cnc(-n5cncn5)cn4)cc(F)c3F)N=C(N)C(C)(C#N)CC12 (single isomer, unassigned) [32b]', 309);

-- ask I'd like to know its IC50. The molecule in question is CC1OCC2(c3cc(NC(=O)c4cnc(OCF)cn4)cc(F)c3F)N=C(N)C(C)(C#N)CC12 (single isomer, unassigned) [31c]
-- reply 15.5

-- ask I'd like to know its IC50. The molecule in question is CC(F)(F)[C@H]1OC[C@]2(c3cc(NC(=O)c4ccc(C#N)cn4)ccc3F)N=C(N)[C@](C)(C#N)C[C@H]12 [17a]
-- reply 1.58

-- ask I'd like to know its IC50. The molecule in question is CC1(C#N)CC2C(C(C)(F)F)OCC2(c2cc(NC(=O)c3cnc(OC(F)F)cn3)ccc2F)N=C1N (stereo not drawn)
-- reply 0.955

-- ask I'd like to know its IC50. The molecule in question is C[C@@]1(C#N)C[C@@H]2[C@@H](C(F)F)OC[C@]2(c2cc(NC(=O)c3cnc(-n4cncn4)cn3)ccc2F)N=C1N [26a]
-- reply 9.77

-- ask I'd like to know its IC50. The molecule in question is CC1OCC2(c3cc(NC(=O)c4ccc(C#N)cn4)cc(F)c3F)N=C(N)C(C)(C#N)CC12 (single isomer, unassigned) [33a]
-- reply 7590

-- ask I'd like to know its IC50. The molecule in question is CC1OCC2(c3cc(NC(=O)c4ccc(OC(F)F)cn4)ccc3F)N=C(N)C(C)(C#N)CC12 (stereo not drawn) [compound 35]
-- reply 6.76

-- ask I'd like to know its IC50. The molecule in question is CC1(C#N)CC2C(CF)OCC2(c2cc(NC(=O)c3ccc(C#N)cn3)ccc2F)N=C1N (stereo not drawn) [24a]
-- reply 2.14

-- ask I'd like to know its IC50. The molecule in question is CC1OCC2(c3cc(NC(=O)c4cnc(OCF)cn4)cc(F)c3F)N=C(N)C(C)(C#N)CC12 (single isomer, unassigned) [31b]
-- reply 8710

-- ask I'd like to know its IC50. The molecule in question is CC1OCC2(c3cc(NC(=O)c4ccc(C#N)cn4)cc(F)c3F)N=C(N)C(C)(C#N)CC12 (single isomer, unassigned) [33c]
-- reply 35.5

-- ask I'd like to know its IC50. The molecule in question is C[C@@]1(C#N)C[C@@H]2[C@@H](C(F)F)OC[C@]2(c2cc(NC(=O)c3ccc(C#N)cn3)ccc2F)N=C1N [27a]
-- reply 2.82

-- ask I'd like to know its IC50. The molecule in question is C[C@@]1(C#N)C[C@@H]2[C@@H](CF)OC[C@]2(c2cc(NC(=O)c3cnc(-n4cncn4)cn3)ccc2F)N=C1N [23a]
-- reply 12.3

-- ask I'd like to know its IC50. The molecule in question is CC1(C#N)CC2C(C(F)F)OCC2(c2cc(NC(=O)c3cnc(OCF)cn3)ccc2F)N=C1N (single isomer, unassigned) [25b]
-- reply 52.5

-- ask I'd like to know its IC50. The molecule in question is CC1(C#N)CC2C(C(F)(F)F)OCC2(c2cc(NC(=O)c3cnc(-n4cncn4)cn3)ccc2F)N=C1N (single isomer, unassigned) [34b]
-- reply 1020

From: patent US20200062773A1
